Target or system: EGFR (Homo sapiens)
Construct: host or cells: A431
Sequence (P00533 25-1210): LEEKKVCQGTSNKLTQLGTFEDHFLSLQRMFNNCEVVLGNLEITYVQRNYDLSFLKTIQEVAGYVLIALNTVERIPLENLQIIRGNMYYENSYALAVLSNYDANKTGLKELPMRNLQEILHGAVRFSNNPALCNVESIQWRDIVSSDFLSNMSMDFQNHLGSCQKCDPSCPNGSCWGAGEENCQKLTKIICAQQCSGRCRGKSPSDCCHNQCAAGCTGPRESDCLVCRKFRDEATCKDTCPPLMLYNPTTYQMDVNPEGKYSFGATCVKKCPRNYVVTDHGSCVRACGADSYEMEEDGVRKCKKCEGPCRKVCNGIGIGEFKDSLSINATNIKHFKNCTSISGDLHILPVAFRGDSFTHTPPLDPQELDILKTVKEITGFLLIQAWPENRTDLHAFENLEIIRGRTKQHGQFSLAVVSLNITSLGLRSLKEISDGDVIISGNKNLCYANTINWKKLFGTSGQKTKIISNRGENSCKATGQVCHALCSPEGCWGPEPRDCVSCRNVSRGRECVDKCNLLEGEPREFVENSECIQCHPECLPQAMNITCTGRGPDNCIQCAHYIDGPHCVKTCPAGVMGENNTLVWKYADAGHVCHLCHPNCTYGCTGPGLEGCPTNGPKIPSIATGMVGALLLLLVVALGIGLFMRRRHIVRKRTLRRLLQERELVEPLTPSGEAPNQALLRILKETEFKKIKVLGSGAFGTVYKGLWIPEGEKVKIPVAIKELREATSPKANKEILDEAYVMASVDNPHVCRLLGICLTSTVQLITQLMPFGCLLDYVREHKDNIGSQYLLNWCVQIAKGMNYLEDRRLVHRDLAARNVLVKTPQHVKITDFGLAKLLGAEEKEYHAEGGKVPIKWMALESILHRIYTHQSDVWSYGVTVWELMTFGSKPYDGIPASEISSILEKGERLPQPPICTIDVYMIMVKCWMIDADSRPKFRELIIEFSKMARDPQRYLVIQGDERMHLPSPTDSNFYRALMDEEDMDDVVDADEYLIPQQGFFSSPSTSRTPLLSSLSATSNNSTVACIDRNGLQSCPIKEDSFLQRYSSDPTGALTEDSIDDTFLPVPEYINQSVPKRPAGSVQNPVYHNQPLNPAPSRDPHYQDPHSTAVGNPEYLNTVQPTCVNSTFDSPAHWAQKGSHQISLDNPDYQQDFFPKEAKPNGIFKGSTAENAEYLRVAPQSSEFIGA
Experimental details: EGFR in-cell Western (ICW) screening protocol (EGFR inhibition assay)
Format: cell-based
Test conditions: Table 10; % Inhibition of EGF dependent EGFR phosphorylation in A431 cells; compound 125 μM in assay
Experimental readout: ICW assay

(A) Cc1ccc(Cl)cc1NC(=S)Nc1ccc(S(=O)(=O)N2c3ccc(F)cc3CCC2C)cc1 (stereo not drawn) [AD4-12829]
(B) CCCCc1ccc(NC(=S)Nc2ccc(S(=O)(=O)Nc3ccc(Cl)cc3)cc2)cc1 [AD4-12501]
(C) Cc1ccc(NC(=S)Nc2ccc(S(=O)(=O)Nc3cc(Cl)cc(Cl)c3)cc2)cc1Cl [AD4-12522]
Please give the order of these compounds when sorted by ICW assay, largest value leading. In your reply, arrange the labels in the requested order.
C, B, A
(C: 123.893, B: 71.3823, A: 46.4407)
